Origin of values: paper PMC9090415

# systemTested: P. falciparum apicoplast DNA polymerase (Pf-apPOL) (Plasmodium falciparum)
# Sequence (Q8ILY1 entry or part of it): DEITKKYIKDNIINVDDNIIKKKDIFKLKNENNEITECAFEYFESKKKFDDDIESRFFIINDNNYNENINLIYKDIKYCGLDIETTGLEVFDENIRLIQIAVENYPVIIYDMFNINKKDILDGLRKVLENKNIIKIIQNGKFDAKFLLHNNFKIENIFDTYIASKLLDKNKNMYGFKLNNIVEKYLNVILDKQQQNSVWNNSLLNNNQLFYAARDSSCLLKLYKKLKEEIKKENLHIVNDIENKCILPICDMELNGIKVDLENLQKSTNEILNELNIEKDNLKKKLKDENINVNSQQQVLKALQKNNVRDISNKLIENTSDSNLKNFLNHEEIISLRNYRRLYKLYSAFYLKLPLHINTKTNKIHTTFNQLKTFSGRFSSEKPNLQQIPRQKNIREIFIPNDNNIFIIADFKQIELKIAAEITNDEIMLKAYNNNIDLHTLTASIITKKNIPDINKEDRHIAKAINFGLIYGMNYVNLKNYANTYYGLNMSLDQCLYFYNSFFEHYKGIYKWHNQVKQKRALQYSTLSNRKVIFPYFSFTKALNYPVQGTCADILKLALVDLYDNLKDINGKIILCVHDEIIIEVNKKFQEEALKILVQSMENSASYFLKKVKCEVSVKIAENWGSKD
# assayNotes: Fluorescence-based high-throughput DNA polymerase assay (molecular beacon), primary screen and dose-response
# Type: biochemical
# settings: DRC-1; 10'; concentration 80
# Excerpt: The HT assay employs a molecular beacon, a stem-loop DNA template with a Cy3 dye and the Black Hole Quencher on the 3′ and 5′ ends of the DNA, respectively. Pf-apPOL concentration is based on a calculated absorptivity of ε280 = 56750 M^−1 cm^−1. […] To identify apPOL inhibitors we utilised our previously developed high-throughput DNA polymerase assay. […] The assay accurately recapitulates the kinetic behaviour of apPOL, as measured through more conventional low-throughput gel-based assays. […]
measurementType: % inhibition Apo pol 10'

>>> print(df.to_string())
                                    compound           measurementtype  measuredresult
 0  COc1ccc(-c2n[nH]cc2Oc2ccc(Cl)cc2)c(O)c1 [KU0029837]  % inhibition Apo pol 10'        88.9574%
 1  Cc1cccc(-c2nnc3ccc(NS(=O)(=O)c4ccc(C)c(C)c4)nn23)c1 [Molecule 40]  % inhibition Apo pol 10'        87.6455%
 2  O=C(NNC(=O)c1ccc(Cl)cc1)C(=O)NNC(=O)c1ccc(Cl)cc1 [Molecule 25]  % inhibition Apo pol 10'        75.0048%
 3  COc1ccccc1CCC(=O)N1CCc2c(nc3cc(-c4ccccc4)[nH]n3c2=O)C1 [Molecule 7]  % inhibition Apo pol 10'             59%
 4  Oc1cccc2ccc(/C=C/c3ccc4c(c3)OCO4)nc12 [KU0025984]  % inhibition Apo pol 10'        93.1389%
 5  O=C1N=C(Nc2cccc(Cl)c2Cl)S/C1=C\c1ccco1 [Molecule 3, O=C1N=C(S/C/1=C\c1ccco1)Nc1cccc(c1Cl)Cl]  % inhibition Apo pol 10'        49.9988%
 6  O=C(O)c1cccc(N2N=C(C(F)(F)F)/C(=C/c3ccc(-c4ccccc4[N+](=O)[O-])o3)C2=O)c1 [Molecule 100]  % inhibition Apo pol 10'        91.0692%
 7  COc1ccc(C(=O)N2CCc3c(nc4cc(-c5ccccc5Cl)[nH]n4c3=O)C2)cn1 [Molecule 26]  % inhibition Apo pol 10'             87%
 8  CSC1=C(C#N)C(=C(C#N)C#N)NC(c2ccccc2)=N1 [Molecule 2, CSc1nc([nH]c(=C(C#N)C#N)c1C#N)c1ccccc1]  % inhibition Apo pol 10'         96.566%
 9  CSC(C)C(=O)C=CN(C)C (stereo not shown) [Molecule 71, CSC(C(=O)C=CN(C)C)C]  % inhibition Apo pol 10'        73.8561%
10  COc1ccc(C)cc1NC(=O)Cn1ccc2c(=O)[nH]ccc21 [Molecule 15, COc1ccc(cc1NC(=O)Cn1ccc2c1cc[nH]c2=O)C]  % inhibition Apo pol 10'        74.4719%
11  O=C1C(=Cc2ccncc2)Oc2c1ccc1c2CN(Cc2ccc3c(c2)OCO3)CO1 [KU0199357]  % inhibition Apo pol 10'        67.6881%
12  COc1cc(/C=C2\S/C(=N/C(C)=O)NC2=O)cc(Br)c1OCC(=O)O [KU0057841]  % inhibition Apo pol 10'        83.5237%
13  Cc1cccc(CC(=O)N2CCc3c(nc4cc(-c5ccccc5)[nH]n4c3=O)C2)c1 [Molecule 12]  % inhibition Apo pol 10'             83%
14  COc1ccc(NC(=O)Cn2ccc3c(=O)[nH]ccc32)cc1 [Molecule 13, COc1ccc(cc1)NC(=O)Cn1ccc2c1cc[nH]c2=O]  % inhibition Apo pol 10'        82.2361%
15  Cc1nc(/N=N/c2ccc(C(=O)[O-])cc2)c(COP(=O)([O-])[O-])c(C=O)c1O.[Na+].[Na+].[Na+] [KU0261395]  % inhibition Apo pol 10'         88.013%
